Tested on: Proto-oncogene tyrosine-protein kinase receptor Ret (Homo sapiens), P07949 [Y791F]
Sequence (P07949 whole entry Y791F): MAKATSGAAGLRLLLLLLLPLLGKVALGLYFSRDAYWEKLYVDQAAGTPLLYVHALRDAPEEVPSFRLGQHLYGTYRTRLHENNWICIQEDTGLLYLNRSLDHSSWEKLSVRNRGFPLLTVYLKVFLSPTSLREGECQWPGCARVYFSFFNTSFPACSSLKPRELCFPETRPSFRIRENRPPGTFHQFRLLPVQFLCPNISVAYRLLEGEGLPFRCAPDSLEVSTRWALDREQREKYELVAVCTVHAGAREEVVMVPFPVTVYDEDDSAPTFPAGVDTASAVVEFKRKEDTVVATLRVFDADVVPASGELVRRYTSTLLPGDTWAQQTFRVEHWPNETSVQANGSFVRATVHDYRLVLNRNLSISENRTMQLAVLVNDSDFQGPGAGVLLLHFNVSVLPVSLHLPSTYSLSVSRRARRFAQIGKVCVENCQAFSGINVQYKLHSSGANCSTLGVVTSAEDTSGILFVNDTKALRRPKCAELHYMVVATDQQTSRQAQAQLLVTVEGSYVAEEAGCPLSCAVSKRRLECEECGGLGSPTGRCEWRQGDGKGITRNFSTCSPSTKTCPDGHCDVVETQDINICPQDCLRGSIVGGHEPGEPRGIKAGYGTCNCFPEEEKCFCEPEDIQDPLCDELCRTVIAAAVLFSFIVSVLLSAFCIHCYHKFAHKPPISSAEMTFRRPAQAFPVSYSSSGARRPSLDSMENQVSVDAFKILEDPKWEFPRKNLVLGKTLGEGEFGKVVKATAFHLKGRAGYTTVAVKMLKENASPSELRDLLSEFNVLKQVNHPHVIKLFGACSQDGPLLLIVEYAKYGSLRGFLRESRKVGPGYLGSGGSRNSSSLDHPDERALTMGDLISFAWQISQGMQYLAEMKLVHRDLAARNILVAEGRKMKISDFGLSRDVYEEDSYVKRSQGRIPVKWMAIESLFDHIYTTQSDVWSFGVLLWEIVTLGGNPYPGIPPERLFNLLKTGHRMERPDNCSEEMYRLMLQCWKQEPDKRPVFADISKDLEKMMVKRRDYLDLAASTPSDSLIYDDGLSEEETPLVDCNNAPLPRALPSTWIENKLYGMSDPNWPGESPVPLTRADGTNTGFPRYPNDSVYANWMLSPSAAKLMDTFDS
settings: at 1 µM
Could you label it class 1 if measured inhibition is 10% or higher, and class 0 otherwise?

{"compound_string": "CN(c1ccc(NC(=O)Nc2ccc(OC(F)(F)F)cc2)cc1)c1ccnc(Nc2cccc(S(N)(=O)=O)c2)n1", "assigned_category": "class 1"}
{"compound_string": "C[C@@H](Oc1cc(-n2cnc3ccc(OC[C@@H](O)CO)cc32)sc1C(N)=O)c1ccccc1Cl", "assigned_category": "class 1"}

Decide: is the reported value of inhibition for `NC(=O)c1cccc(Nc2nccc(Nc3cccc(F)c3)n2)c1` equal to or greater than 10%?
class 1

Decide: is the reported value of inhibition for `Cc1ccc(O)cc1Nc1ccnc2ccc(S(C)(=O)=O)cc12` equal to or greater than 10%?
class 1
